Reported log10(TGI) is given for each of the following compounds.
- System: UACC-62 melanoma
- PROTOCOL_DETAILS: NCI tumour cell line growth inhibition, 48 h
In our notation, the value equals log10 of TGI in µM.

These solved cases illustrate the format of a correct answer.
>>> experimental_result("CO[C@@H]1[C@@H](OC2OC(C)C(OC3CC(C)(O)C(OC(=O)CC(C)C)C(C)O3)C(N(C)C)C2O)[C@@H](CC=O)C[C@@H](C)C(=O)/C=C/C2O[C@H]2C[C@@H](C)OC(=O)C[C@H]1OC(C)=O (some centres undefined)")
1.78
>>> experimental_result("ClCCN(CCCl)c1ccc(-n2cnc3c(Cl)ncnc32)cc1")
0.53
>>> experimental_result("O=C1OC(c2ccc(O)c(Cl)c2)(c2ccc(O)c(Cl)c2)c2ccc(Br)c3cccc1c23 (tested in a mixture with another compound)")
1.42

Tell me log10(TGI) reported for NC1C/C(=N\O)c2c(I)sc(I)c21 (centres undefined) 1.57

Tell me log10(TGI) reported for COc1cc(CSc2nc3ccc(C)cc3c(=O)n2Cc2ccccc2)cc(OC)c1OC 1.55

----------
- Tested on: K-562 leukemia
- PROTOCOL_DETAILS: NCI tumour cell line growth inhibition, 48 h
OUTCOME_MEASURE: TGI

These solved cases illustrate the format of a correct answer.
>>> experimental_result("Cn1c(=O)cc2c3c(c(NCCCO)ccc31)C(=O)c1ccccc1-2")
"64.3 µM"
>>> experimental_result("CC(c1ccc(Br)cc1)C(C(=O)O)C(=O)O (stereo not drawn)")
"> 100 µM"
>>> experimental_result("CC(=O)OC1COC(S[As](C)C)C(OC(C)=O)C1OC(C)=O (stereo not drawn)")
"0.0913 µM"
>>> experimental_result("CCc1c2c(nc3cc4c(cc13)OCO4)-c1cc3c(c(=O)n1C2)COC(=O)[C@@]3(CC)OC(=O)CN")
"5.65 µM"
>>> experimental_result("CCCCC(=O)N/N=C/c1cc(I)cc(I)c1O")
"15.9 µM"
>>> experimental_result("COC(=O)CC1(CNC(=O)OCc2ccccc2)OCCO1")
"> 100 µM"
>>> experimental_result("Cc1ccc(/C=C/C(=O)c2c([O-])on[n+]2-c2ccccc2)cc1")
"> 100 µM"
>>> experimental_result("N#Cc1[nH]c(=O)n(-c2ccc(Cl)cc2)c1N")
"> 10 µM"
>>> experimental_result("Cc1nn(C(=O)c2ccc(Cl)cc2)c2c1C(c1ccc([N+](=O)[O-])cc1)SC(N)=N2 (stereo not drawn)")
"> 10 µM"
>>> experimental_result("O=c1c2ccc3cccc4c(=O)cc(c5ccccc15)-c2c34")
"> 100 µM"

Tell me TGI reported for CC[C@@]1(O)C(=O)OCc2c1cc1n(c2=O)Cc2c-1nc1ccccc1c2CC[Si](C)(C)C > 100 µM

Tell me TGI reported for CCCNCc1nc2ccc(Br)cc2c(=O)n1CCC > 100 µM

Tell me TGI reported for CCOP(=O)(/C=C\n1cnc2c(=O)n(C(C)=O)c(N)nc21)OCC > 100 µM

Tell me TGI reported for COC(=O)C(CCC1C=CCC1)N=Cc1ccccc1 (stereo not drawn) > 100 µM

Tell me TGI reported for NC1C/C(=N\O)c2c(I)sc(I)c21 (stereo not drawn) > 74.1 µM

----------
- Test system: LOX IMVI melanoma
- PROTOCOL_DETAILS: NCI tumour cell line growth inhibition, 48 h
Reported TGI is given for each of the following compounds.

These solved cases illustrate the format of a correct answer.
>>> experimental_result("CCOC(=O)/N=C(\\N)SCc1ccccc1")
"> 100 µM"
>>> experimental_result("CC(=O)Nc1ncc(Sc2ccccc2C(=O)O)s1")
"> 100 µM"
>>> experimental_result("COC(=O)C1=Nc2c(C)nn(-c3ccccc3)c2N=C(c2ccc(C)cc2)C1")
"> 10 µM"

Tell me TGI reported for CO[C@@H]1[C@@H](OC2OC(C)C(OC3CC(C)(O)C(OC(=O)CC(C)C)C(C)O3)C(N(C)C)C2O)[C@@H](CC=O)C[C@@H](C)C(=O)/C=C/C2O[C@H]2C[C@@H](C)OC(=O)C[C@H]1OC(C)=O (stereo partly drawn) 30.4 µM

Tell me TGI reported for COc1ccc2c3c1C(=O)CCC3CO2 (stereo not drawn) > 100 µM

Tell me TGI reported for CN(C)CCn1c2ccccc2c2nc3cc4ccccc4cc3nc21 15.6 µM

Tell me TGI reported for N=C(N)SCCc1cn2ccccc2n1 > 100 µM

Tell me TGI reported for O=C(CN1CCN(C(=O)OCc2ccccc2)CCN(CC(=O)N2CCCCC2)CCN(C(=O)OCc2ccccc2)CC1)N1CCCCC1 28.1 µM

Tell me TGI reported for N=C(c1ccccc1)N(O)C1CCCCC1 > 100 µM

Tell me TGI reported for CCCN1C(=O)CCC2=C1CCc1c2ccc(Cl)c1Cl > 100 µM

Tell me TGI reported for CCc1n[nH]c(=O)n1N1C(=O)C2CC=CCC2C1=O (stereo not drawn) > 100 µM

Tell me TGI reported for COC(=O)c1ccccc1NC(=O)/C(=N\NC(C)(C)C)C(C#N)c1nc(-c2ccc([N+](=O)[O-])cc2)cs1 (stereo not drawn) > 100 µM

Tell me TGI reported for O=c1[nH]c(Br)nc2c(Br)c[nH]c12 > 100 µM

----------
- Test system: A549 NSCLC
- PROTOCOL_DETAILS: NCI tumour cell line growth inhibition, 48 h
OUTCOME_MEASURE: TGI

>>> experimental_result("COc1cc2c(c(OC)c1OC)-c1[nH]ncc1CC2")
"> 100 µM"
>>> experimental_result("O=C(Oc1ccccc1)c1cc2cc(CCl)ccc2oc1=O")
"> 100 µM"
>>> experimental_result("CC(C)CCC1(O)O[C@H]2C[C@H]3[C@@H]4CCC5CC(=O)C=C[C@]5(C)[C@H]4CC[C@]3(C)[C@H]2[C@@H]1C (stereo partly drawn)")
"28.2 µM"

Tell me TGI reported for O=C(O)CSCC(=O)Nc1ccc2cccc3c2c1CC3 > 100 µM

Tell me TGI reported for Cc1c(C(=O)/C=C/c2ccc(Cl)cc2)[n+](=O)c2ccccc2n1[O-] 33.6 µM

Tell me TGI reported for CCCN(CCC)c1ccc(CO)c(C)c1 > 100 µM

Tell me TGI reported for COc1cc(OC)c2c(=O)c(O)c(-c3ccc(OC)c(OC)c3)oc2c1 > 100 µM

Tell me TGI reported for CC(=O)[O-].CC(=O)[O-].O=C(N/N=C/c1cc(Cl)cc(Cl)c1[OH2+])c1ccncc1.[Co+2] > 100 µM

Tell me TGI reported for CC(=O)OC1CCn2nnc(COC(=O)NC(C)C)c21 (stereo not drawn) > 100 µM

Tell me TGI reported for O=C(O)C1C2CC3C(OC(=O)C31)C2Br (stereo not drawn) > 100 µM

Tell me TGI reported for CC(C)(C)[Si](C)(C)OCCCC#CCO > 100 µM

Tell me TGI reported for C=C=C(C)[Si](C)(C)C > 100 µM

Tell me TGI reported for O=C1C=C(Nc2ccccc2C(=O)CC(=O)C(=O)Nc2cccc(C(F)(F)F)c2)c2ccccc2C1=O > 89.8 µM

Tell me TGI reported for CC(=O)OCC1OC(n2c(N)c(C#N)c(-c3ccccc3)c(C#N)c2=S)C(OC(C)=O)C(OC(C)=O)C1OC(C)=O (stereo not drawn) > 100 µM

Tell me TGI reported for NC(=O)CCC(NCc1c2ccccc2[n+]([O-])c2ccccc12)C(=O)O (stereo not drawn) > 100 µM

----------
Reported TGI is given for each of the following compounds.
- Test system: SR leukemia
- PROTOCOL_DETAILS: NCI tumour cell line growth inhibition, 48 h

Tell me TGI reported for Cc1cccc(Nc2cn(COCc3ccccc3)c(=O)[nH]c2=O)c1 > 100 µM

Tell me TGI reported for COc1cccc2cc(C(N)=O)c(=N)oc12 > 100 µM

Tell me TGI reported for CCOC(=O)CC1(O)C=CC(=O)C=C1 1.18 µg/mL

Tell me TGI reported for O=C(Nc1cc(C(F)(F)F)ccc1F)Nc1n[nH]c2ccccc12 > 100 µM

Tell me TGI reported for CO[C@@H]1[C@@H](OC2OC(C)C(OC3CC(C)(O)C(OC(=O)CC(C)C)C(C)O3)C(N(C)C)C2O)[C@@H](CC=O)C[C@@H](C)C(=O)/C=C/C2O[C@H]2C[C@@H](C)OC(=O)C[C@H]1OC(C)=O (stereo partly drawn) 42.4 µM

Tell me TGI reported for CS(=O)(=O)CCNCc1ccc(-c2ccc3ncnc(Nc4ccc(OCc5cccc(C(F)(F)F)c5)cc4)c3c2)o1 16.7 µM

Tell me TGI reported for COC(CCP(=O)(c1ccccc1)c1ccccc1)(C(=O)c1ccccc1)c1ccccc1 (stereo not drawn) > 100 µM

Tell me TGI reported for O=C(O)/C(=C/c1ccccc1[N+](=O)[O-])c1ccccc1 > 100 µM
